biological target: UniProtKB P49840; assay: concentration-response blocking of human GSK3A – biochemical, luminescence, cell-free homogeneous, retest, dose response (AID 463203); conditions: GSK-3 alpha enzyme, ADP-Glo luminescence, 60 min
Sequence (P49840 whole entry, looked up): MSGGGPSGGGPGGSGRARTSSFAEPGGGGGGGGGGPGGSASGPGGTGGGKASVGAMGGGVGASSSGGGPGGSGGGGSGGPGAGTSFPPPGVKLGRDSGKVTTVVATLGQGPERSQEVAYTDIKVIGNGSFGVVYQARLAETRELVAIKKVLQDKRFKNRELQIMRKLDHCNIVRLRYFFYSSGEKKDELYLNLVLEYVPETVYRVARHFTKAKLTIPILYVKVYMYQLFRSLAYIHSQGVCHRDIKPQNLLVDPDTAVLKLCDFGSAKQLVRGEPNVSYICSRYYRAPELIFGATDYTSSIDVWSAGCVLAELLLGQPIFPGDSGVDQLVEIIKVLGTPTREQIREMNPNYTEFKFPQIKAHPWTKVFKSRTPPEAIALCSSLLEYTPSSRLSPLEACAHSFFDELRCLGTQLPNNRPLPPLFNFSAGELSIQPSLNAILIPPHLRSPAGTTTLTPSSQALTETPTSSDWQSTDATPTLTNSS
The source made the active and inactive calls.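 How the source made its calls: active means more than half of replicate measurements showing over 20% loss of kinase signal relative to plate controls; inconclusive means some but at most half of replicates over 20% loss; inactive means no replicate over 20% signal loss.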
compounds and their reported AC50

Look over these answered cases.
{"compound": "COc1ccc(N=c2oc3c(OC)cccc3cc2C(=O)NCc2ccco2)cc1OC", "AC50": "> 30 µM (inactive)"}
{"compound": "O=C(O)Cn1cc(/C=N/NC(=O)c2cc3cc(Br)ccc3o2)c2ccccc21", "AC50": "6.05 µM"}

**Q:** Under UniProtKB P49840: AC50 value of `O=C(O)c1[nH]c2ccc([N+](=O)[O-])cc2c1-c1ccccc1` ?
**A:** 11 µM

**Q:** Under UniProtKB P49840: AC50 value of `CCCCc1ccc(NC(=O)N[C@@H](C)C(=O)O)cc1` ?
**A:** > 30 µM (inactive)

**Q:** Under UniProtKB P49840: AC50 value of CCCC1=C(C(=O)OCC)C(c2ccc(O)cc2)n2ncnc2N1 (stereo not drawn) ?
**A:** 11.2 µM

FYI, the data here is from PubChem BioAssay AID463203.
